# measured.on: Potassium voltage-gated channel subfamily KQT member 2 (Rattus norvegicus)
# measurement.protocol: rat KCNQ2 channel potentiation, selectivity assay for KCNQ1 potentiator project, KCNQ2-CHO-K1 cells (AID 493009);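 further: assay conditions were tuned for KCNQ1 rather than KCNQ2 modulators; signal is max minus min fluorescence divided by baseline after thallium stimulus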
# measurement.parameters: FluxOR thallium flux fluorescence, at 10 µM, scaled: buffer 0, activator control 100
Activity calls are given as the source filed them.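 How the source made its calls: active means mean duplicate potentiation above the buffer control mean plus 5 SD of buffer wells; inactive means the rest.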
Give your call using only these classes: active, inactive

## Task Write down the call the test reported for this compound. Item: CC(=O)Nc1nc2c(F)cccc2s1
## Result inactive

## Task What classification did CCOc1ccc(NC(=S)NC(=O)c2ccco2)cc1 end up with in this test?
## Result active

## Task For this compound, state the assay outcome: Fc1ccccc1/C=N/NC(=S)Nc1ccc(Cl)cc1Cl
## Result inactive

## Task Just curious, what result did Cc1cc(S(=O)(=O)N2CCOCC2)ccc1OCC(=O)Nc1ccc(Br)cc1F get here?
## Result inactive

## Task Recorded test call requested for CCOc1cccc(/C=N/NC(=O)C2CCCC2)c1O
## Result inactive

## Task Which result was noted for this compound in the test: CCC(/C=N/NC(=O)C1COc2ccccc2O1)CC (centres undefined)
## Result inactive

## Task GET /call?item= O=c1c2cc(Cl)cc(Cl)c2nc2n1CCC2 returns the recorded outcome of this test.
## Result inactive

## Task Recorded test outcome, item Cc1cccc(C(=O)NC(=S)NNC(=O)c2cccs2)c1
## Result active

## Task Write down the call the test reported for this compound. Item: O=C1CCCCCN1Sc1ccccc1
## Result inactive

## Task Look up the recorded call for CCN(CC)C(=O)c1[nH]cnc1C(=O)NCC(=O)OC(C)(C)C in this test.
## Result inactive

## Task In this assay, the call recorded for Cc1ccc(-n2cccc2/C=C2\C(=N)N3N=C(C(C)C)SC3=NC2=O)cc1 was what?
## Result inactive

## Task Hello, I am checking results. What call was entered for CCOC(=O)CSc1nc(C2CC2)cc(-c2ccc(F)cc2)c1C#N ?
## Result active

## Task How did this test come out for CCCN(CCC)CCNC(=O)Cn1cnc2sc(C)c(S(=O)(=O)N3CCOCC3)c2c1=O ?
## Result inactive

## Task Test call for this compound, please: O=C(NC(=S)Nc1ccccc1)c1ccc(Br)o1
## Result active

## Task Can you look up the reported call for Cc1sc2nc(CSc3ccccc3)nc(N3CCN(C)CC3)c2c1C for me?
## Result inactive

## Task What outcome does the record of this test show for N#Cc1ccc(-c2nc3cc(Cl)ccc3c(=O)n2O)cc1 ?
## Result active

## Task Just curious, what result did CN(C)C(=S)NC(=O)c1cccc(Cl)c1 get here?
## Result active

## Task Hi, do you know how COc1ccc(C(=O)NNC(=O)C(=O)NCc2ccccc2)cc1 came out in this test?
## Result active

## Task Answer briefly: the call reported for COc1ccc(NC(=S)NCCC(c2ccccc2)c2ccccc2)c(OC)c1 in this assay.
## Result inactive

## Task Lab log entry: CC12CCC(C(=O)N(CSC(=S)N/N=C\c3ccccc3Cl)C1=O)C2(C)C (centres undefined) — outcome as called in the assay?
## Result active

## Task What did the test return for CS(=O)(=O)N1CCc2cc(-c3csc(NC(=O)C(c4ccccc4)c4ccccc4)n3)ccc21 ?
## Result inactive

## Task Could you please tell me the result logged for Cc1ccccc1-n1c(C)cc(/C=N/NC(=O)c2ccncc2)c1C in this assay?
## Result active

## Task Tell me the recorded outcome of this test for CCOC(=O)C(C)Oc1cccc2c(=O)n(CC(=O)NCc3ccc4c(c3)OCO4)ccc12 (centres undefined) .
## Result inactive

## Task Could you kindly confirm the outcome this assay logged for Cc1sc2nc(CN3CCOCC3)[nH]c(=S)c2c1C ?
## Result active
